# System: Streptococcus pyogenes 930 CONST
# methodNotes: In vitro antibacterial activity, agar dilution MIC
# Format: cell-based
# measurementConditions: 930CONST
endpointName: MIC

- compoundSmiles: "CC[C@H]1OC(=O)[C@H](C)[C@@H](O[C@H]2C[C@@](C)(OC)[C@H](N)[C@H](C)O2)[C@H](C)[C@@H](O[C@@H]2O[C@H](C)C[C@H](N(C)C)[C@H]2O)[C@](C)(O)C[C@@H](C)[C@@H](N2CCCCC2)[C@H](C)[C@@H](O)[C@]1(C)O"
  endpointName: "MIC"
  observedMeasurement: "> 100 µg/mL"

Switching to the query record.
Problem: State its MIC on Streptococcus pyogenes 930 CONST: "CC[C@H]1OC(=O)[C@H](C)[C@@H](O[C@H]2C[C@@](C)(OC)[C@@H](O)[C@H](C)O2)[C@H](C)[C@@H](O[C@@H]2O[C@H](C)C[C@H](N(C)C)[C@H]2O)[C@](C)(O)C[C@@H](C)[C@@H](N2CCCC(C)(C)C2)[C@H](C)[C@@H](O)[C@]1(C)O"
Solution: > 100 µg/mL

The reported numbers originate from patent US5075289A.
